# Tested on: SARS-CoV-2
# Format: functional, organism-based
# Test Settings: Severe acute respiratory syndrome coronavirus 2, B.1.513, Calu-3
Please note: EC50 exactly at 100 nM is Not satisfied. Only values below 100 nM get Satisfied.

These solved cases illustrate the format of a correct answer.
{"Structure Notation": "C=CC(=O)[C@H](Cc1ccccc1)NC(=O)[C@H](CC(C)C)NC(=O)c1cc2ccccc2[nH]1", "Class Assignment": "Satisfied"}
{"Structure Notation": "C=CC(=O)[C@H](Cc1ccccc1)NC(=O)[C@H](CC(C)C)NC(=O)/C=C/c1ccc(OC(F)(F)F)cc1", "Class Assignment": "Satisfied"}

Task: Strictly below 100 nM: is that where EC50 of CC(C)C(=O)OC[C@H]1O[C@@H](n2cc/c(=N\O)[nH]c2=O)[C@H](O)[C@@H]1O sits?
Output: Satisfied

Task: Strictly below 100 nM: is that where EC50 of C=CC(=O)[C@H](Cc1ccccc1)NC(=O)[C@H](CC(C)C)NC(=O)CSc1ccccc1 sits?
Output: Satisfied

Task: Strictly below 100 nM: is that where EC50 of C=CC(=O)[C@H](Cc1ccccc1)NC(=O)[C@H](CC(C)C)NC(=O)COc1cccc(OC)c1 sits?
Output: Not satisfied

Task: Strictly below 100 nM: is that where EC50 of C=CC(=O)[C@H](Cc1cccc(F)c1)NC(=O)[C@H](CC(C)C)NC(=O)COc1ccc(Cl)cc1Cl sits?
Output: Not satisfied

Task: Strictly below 100 nM: is that where EC50 of C=CC(=O)[C@H](Cc1ccccc1)NC(=O)[C@H](CC(C)C)NC(=O)/C=C/c1ccc(N(C)C)cc1 sits?
Output: Not satisfied

Task: Strictly below 100 nM: is that where EC50 of C=CC(=O)[C@H](Cc1ccccc1)NC(=O)[C@H](CC(C)C)NC(=O)CCc1ccc(Cl)cc1Cl sits?
Output: Not satisfied
